- Tgt: TLR1/TLR2 (Homo sapiens, UniProt O60603+Q15399)
- Sequence (Q15399 25-786): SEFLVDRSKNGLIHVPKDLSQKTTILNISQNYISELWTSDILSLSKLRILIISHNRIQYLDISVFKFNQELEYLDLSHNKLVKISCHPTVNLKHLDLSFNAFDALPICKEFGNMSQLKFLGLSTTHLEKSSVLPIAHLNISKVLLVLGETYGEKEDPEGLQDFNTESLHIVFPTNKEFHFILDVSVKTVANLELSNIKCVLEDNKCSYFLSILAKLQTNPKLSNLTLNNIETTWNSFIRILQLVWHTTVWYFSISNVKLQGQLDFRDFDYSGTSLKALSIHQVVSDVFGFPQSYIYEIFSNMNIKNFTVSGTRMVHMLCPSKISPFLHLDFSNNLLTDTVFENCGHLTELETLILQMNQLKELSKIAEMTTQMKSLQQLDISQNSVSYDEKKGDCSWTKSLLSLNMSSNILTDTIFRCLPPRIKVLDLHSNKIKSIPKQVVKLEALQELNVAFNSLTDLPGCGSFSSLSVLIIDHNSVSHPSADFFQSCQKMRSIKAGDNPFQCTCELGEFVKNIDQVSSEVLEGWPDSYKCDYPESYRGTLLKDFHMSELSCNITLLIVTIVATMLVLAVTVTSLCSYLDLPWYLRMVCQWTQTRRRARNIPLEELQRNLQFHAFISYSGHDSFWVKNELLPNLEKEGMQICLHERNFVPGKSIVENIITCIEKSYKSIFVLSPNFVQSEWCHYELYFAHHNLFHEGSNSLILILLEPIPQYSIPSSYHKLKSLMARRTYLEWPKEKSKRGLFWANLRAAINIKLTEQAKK
- Sequence (O60603 21-784): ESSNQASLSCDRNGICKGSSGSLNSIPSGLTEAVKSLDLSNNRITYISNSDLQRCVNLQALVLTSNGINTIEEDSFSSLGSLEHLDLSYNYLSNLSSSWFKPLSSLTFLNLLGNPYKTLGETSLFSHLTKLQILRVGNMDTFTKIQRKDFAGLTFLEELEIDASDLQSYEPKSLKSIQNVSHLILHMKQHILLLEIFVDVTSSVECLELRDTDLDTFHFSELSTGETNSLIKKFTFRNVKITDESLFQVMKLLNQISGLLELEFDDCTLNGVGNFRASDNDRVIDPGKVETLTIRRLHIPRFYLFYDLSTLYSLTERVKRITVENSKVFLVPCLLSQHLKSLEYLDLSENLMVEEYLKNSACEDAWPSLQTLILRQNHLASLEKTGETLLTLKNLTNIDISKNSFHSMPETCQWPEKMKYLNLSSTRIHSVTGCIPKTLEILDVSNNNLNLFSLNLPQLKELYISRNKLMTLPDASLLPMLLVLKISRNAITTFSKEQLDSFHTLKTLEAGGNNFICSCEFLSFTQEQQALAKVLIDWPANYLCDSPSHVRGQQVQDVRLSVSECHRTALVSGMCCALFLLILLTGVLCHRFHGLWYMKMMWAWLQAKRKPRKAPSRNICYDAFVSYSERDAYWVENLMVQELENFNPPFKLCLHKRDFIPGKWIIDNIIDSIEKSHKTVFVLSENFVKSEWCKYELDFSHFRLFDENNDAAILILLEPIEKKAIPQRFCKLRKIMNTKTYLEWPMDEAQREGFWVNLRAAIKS
- Assay text: TNF-α release from PMA-differentiated human THP-1 cells (ELISA);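 further: cells exposed to graded compound concentrations for 4 h, TNF-α quantified in supernatant, LPS as positive and DMSO as negative control, values are duplicate means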
- Measurement context: THP-1, 4 h, read-out: Efficacy (magnitude) of response versus diprovocim-1 (100%), THP-1
Listed below: Emax values for each entry.
Use % as the unit, but write only the number.

INSERT INTO measurements (compound_string, property_name, unit_info, endpoint_value) VALUES
  ('CC(C)(C)OC(=O)CCOCCOCCOCCNC(=O)CCCCCCCCCCCNC(=O)[C@@H]1CN(C(=O)c2ccc(C(=O)N3C[C@@H](C(=O)N[C@H]4C[C@@H]4c4ccccc4)[C@H](C(=O)N[C@H]4C[C@@H]4c4ccccc4)C3)cc2)C[C@H]1C(=O)N[C@H]1C[C@@H]1c1ccccc1', 'Emax', '%', 100);

Q. Entry "O=C(CNC(=O)c1ccc(C(=O)O)cc1)OCCCCCCCCCCCCNC(=O)[C@@H]1CN(C(=O)c2ccc(C(=O)N3C[C@@H](C(=O)N[C@H]4C[C@@H]4c4ccccc4)[C@H](C(=O)N[C@H]4C[C@@H]4c4ccccc4)C3)cc2)C[C@H]1C(=O)N[C@H]1C[C@@H]1c1ccccc1" has what Emax?
A. 100

* * *

- Tgt: TLR1/TLR2 (Mus musculus, UniProt Q9EPQ1+Q9QUN7)
- Sequence (Q9EPQ1 26-795): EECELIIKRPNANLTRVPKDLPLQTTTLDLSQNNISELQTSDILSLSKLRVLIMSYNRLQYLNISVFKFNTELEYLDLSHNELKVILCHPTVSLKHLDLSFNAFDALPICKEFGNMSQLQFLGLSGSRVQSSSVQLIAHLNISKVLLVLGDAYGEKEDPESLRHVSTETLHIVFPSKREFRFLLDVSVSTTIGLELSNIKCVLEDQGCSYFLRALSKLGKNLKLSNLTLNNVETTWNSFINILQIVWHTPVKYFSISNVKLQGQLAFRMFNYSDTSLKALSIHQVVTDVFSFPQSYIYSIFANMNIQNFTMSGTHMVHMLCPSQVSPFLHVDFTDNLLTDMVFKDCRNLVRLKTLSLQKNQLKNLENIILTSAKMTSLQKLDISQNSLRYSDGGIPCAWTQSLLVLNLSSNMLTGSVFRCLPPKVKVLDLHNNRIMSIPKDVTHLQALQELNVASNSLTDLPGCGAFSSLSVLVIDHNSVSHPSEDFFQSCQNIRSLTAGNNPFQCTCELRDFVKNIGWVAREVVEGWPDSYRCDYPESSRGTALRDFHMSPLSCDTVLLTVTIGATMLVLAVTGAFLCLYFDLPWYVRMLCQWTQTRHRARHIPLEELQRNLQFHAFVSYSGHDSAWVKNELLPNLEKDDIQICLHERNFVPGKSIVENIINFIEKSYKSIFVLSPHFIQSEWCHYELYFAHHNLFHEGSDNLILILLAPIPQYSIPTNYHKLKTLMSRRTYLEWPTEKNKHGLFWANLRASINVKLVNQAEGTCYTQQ
- Sequence (Q9QUN7 25-784): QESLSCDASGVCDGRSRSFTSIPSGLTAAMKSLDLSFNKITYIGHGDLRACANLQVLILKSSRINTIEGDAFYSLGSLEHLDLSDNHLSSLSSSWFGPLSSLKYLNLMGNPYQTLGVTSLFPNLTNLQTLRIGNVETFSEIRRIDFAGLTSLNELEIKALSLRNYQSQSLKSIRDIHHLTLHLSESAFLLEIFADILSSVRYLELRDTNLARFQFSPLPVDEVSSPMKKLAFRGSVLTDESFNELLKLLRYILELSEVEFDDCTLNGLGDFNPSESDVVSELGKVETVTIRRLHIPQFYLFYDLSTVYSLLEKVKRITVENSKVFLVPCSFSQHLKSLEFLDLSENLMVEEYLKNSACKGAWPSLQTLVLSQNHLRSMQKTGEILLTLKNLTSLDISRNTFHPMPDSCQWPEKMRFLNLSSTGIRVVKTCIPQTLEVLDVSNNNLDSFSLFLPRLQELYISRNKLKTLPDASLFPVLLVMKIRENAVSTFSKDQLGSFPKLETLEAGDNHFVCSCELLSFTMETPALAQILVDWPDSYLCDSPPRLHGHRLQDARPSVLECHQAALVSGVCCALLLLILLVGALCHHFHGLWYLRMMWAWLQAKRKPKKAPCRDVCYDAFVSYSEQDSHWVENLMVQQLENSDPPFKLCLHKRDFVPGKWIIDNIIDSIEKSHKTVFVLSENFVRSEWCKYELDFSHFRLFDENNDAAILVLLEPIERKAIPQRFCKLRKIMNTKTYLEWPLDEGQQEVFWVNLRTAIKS
- Assay text: TNF-α release from thioglycolate-elicited mouse peritoneal macrophages (ELISA)
- Measurement context: 4 h, read-out: Efficacy (magnitude) of response versus diprovocim-1 (100%), mouse macrophages
# note: boundary value 200% maps to not satisfied; Emax below it maps to satisfied

Illustrative cases are given below, each with its answer.
INSERT INTO results (compound_string, tgt, assigned_category) VALUES
  ('O=C(CNC(=O)C(=O)O)OCCCCCCCCCCCCNC(=O)[C@@H]1CN(C(=O)c2ccc(C(=O)N3C[C@@H](C(=O)N[C@H]4C[C@@H]4c4ccccc4)[C@H](C(=O)N[C@H]4C[C@@H]4c4ccccc4)C3)cc2)C[C@H]1C(=O)N[C@H]1C[C@@H]1c1ccccc1', 'TLR1/TLR2 (Mus musculus, UniProt Q9EPQ1+Q9QUN7)', 'not satisfied'),
  ('O=C(CNC(=O)OCC1c2ccccc2-c2ccccc21)OCCCCCCCCCCCCNC(=O)[C@@H]1CN(C(=O)c2ccc(C(=O)N3C[C@@H](C(=O)N[C@H]4C[C@@H]4c4ccccc4)[C@H](C(=O)N[C@H]4C[C@@H]4c4ccccc4)C3)cc2)C[C@H]1C(=O)N[C@H]1C[C@@H]1c1ccccc1', 'TLR1/TLR2 (Mus musculus, UniProt Q9EPQ1+Q9QUN7)', 'satisfied'),
  ('Nc1ccc(CCCCCCCCNC(=O)[C@@H]2CN(C(=O)c3ccc(C(=O)N4C[C@@H](C(=O)N[C@H]5C[C@@H]5c5ccccc5)[C@H](C(=O)N[C@H]5C[C@@H]5c5ccccc5)C4)cc3)C[C@H]2C(=O)N[C@H]2C[C@@H]2c2ccccc2)cc1', 'TLR1/TLR2 (Mus musculus, UniProt Q9EPQ1+Q9QUN7)', 'not satisfied'),
  ('CC(C)(C)Oc1ccc(C(=O)OCCCCCCCCCCCCNC(=O)[C@@H]2CN(C(=O)c3ccc(C(=O)N4C[C@@H](C(=O)N[C@H]5C[C@@H]5c5ccccc5)[C@H](C(=O)N[C@H]5C[C@@H]5c5ccccc5)C4)cc3)C[C@H]2C(=O)N[C@H]2C[C@@H]2c2ccccc2)cc1', 'TLR1/TLR2 (Mus musculus, UniProt Q9EPQ1+Q9QUN7)', 'satisfied'),
  ('O=C(CNC(=O)OCC(Cl)(Cl)Cl)OCCCCCCCCCCCCNC(=O)[C@@H]1CN(C(=O)c2ccc(C(=O)N3C[C@@H](C(=O)N[C@H]4C[C@@H]4c4ccccc4)[C@H](C(=O)N[C@H]4C[C@@H]4c4ccccc4)C3)cc2)C[C@H]1C(=O)N[C@H]1C[C@@H]1c1ccccc1', 'TLR1/TLR2 (Mus musculus, UniProt Q9EPQ1+Q9QUN7)', 'not satisfied'),
  ('Nc1ccc(C(=O)OCCCCCCCCCCCCNC(=O)[C@@H]2CN(C(=O)c3ccc(C(=O)N4C[C@@H](C(=O)N[C@H]5C[C@@H]5c5ccccc5)[C@H](C(=O)N[C@H]5C[C@@H]5c5ccccc5)C4)cc3)C[C@H]2C(=O)N[C@H]2C[C@@H]2c2ccccc2)cc1', 'TLR1/TLR2 (Mus musculus, UniProt Q9EPQ1+Q9QUN7)', 'not satisfied');

Please examine the following record next.
Q. I wonder whether "O=C(CNC(=O)C(F)(F)F)OCCCCCCCCCCCCNC(=O)[C@@H]1CN(C(=O)c2ccc(C(=O)N3C[C@@H](C(=O)N[C@H]4C[C@@H]4c4ccccc4)[C@H](C(=O)N[C@H]4C[C@@H]4c4ccccc4)C3)cc2)C[C@H]1C(=O)N[C@H]1C[C@@H]1c1ccccc1" has Emax below 200%. Can you tell?
A. satisfied
